# procedure.details: Ibuprofen blood plasma concentration after infrared triggering of subcutaneous strand in rat
# Assay type: in vivo
# condition.info: sc, subcutaneous strand with 40 wt % ibuprofen, second time (next day), before irradiation, LC-MS/MS
# Protocol: An object consisting of a compounded strand with a diameter of 2.0 mm and a length of 2.0 cm. […] Addition of ibuprofen led to a lowering of the Tg to about −1° C. The strand was placed subcutaneously in a rat. After 1 day, the strand was irradiated perpendicularly to the length axis with the same laser diode module as in Example 1a, for 15 minutes, the laser power set at 750 mW and the distance between fiber exit and the skin of the rat being 20 mm. The next day this procedure was repeated again. […]
metric: concentration at 2 day

Sure, the documented concentration at 2 day for CC(C)Cc1ccc(C(C)C(=O)O)cc1 (stereo not shown) is < 5 ng/mL
